What pKd was measured for each of the following?
System: T1, human PCSK9 (proprotein convertase subtilisin kexin type 9) (human, UniProt Q8NBP7 31-692)
T1 construct: Directly immobilized (SPR ProteOn), biotinylated (BLI), or in solution, depending on the assay; also called hPCSK9
T1 sequence (Q8NBP7 31-692 limits assumed): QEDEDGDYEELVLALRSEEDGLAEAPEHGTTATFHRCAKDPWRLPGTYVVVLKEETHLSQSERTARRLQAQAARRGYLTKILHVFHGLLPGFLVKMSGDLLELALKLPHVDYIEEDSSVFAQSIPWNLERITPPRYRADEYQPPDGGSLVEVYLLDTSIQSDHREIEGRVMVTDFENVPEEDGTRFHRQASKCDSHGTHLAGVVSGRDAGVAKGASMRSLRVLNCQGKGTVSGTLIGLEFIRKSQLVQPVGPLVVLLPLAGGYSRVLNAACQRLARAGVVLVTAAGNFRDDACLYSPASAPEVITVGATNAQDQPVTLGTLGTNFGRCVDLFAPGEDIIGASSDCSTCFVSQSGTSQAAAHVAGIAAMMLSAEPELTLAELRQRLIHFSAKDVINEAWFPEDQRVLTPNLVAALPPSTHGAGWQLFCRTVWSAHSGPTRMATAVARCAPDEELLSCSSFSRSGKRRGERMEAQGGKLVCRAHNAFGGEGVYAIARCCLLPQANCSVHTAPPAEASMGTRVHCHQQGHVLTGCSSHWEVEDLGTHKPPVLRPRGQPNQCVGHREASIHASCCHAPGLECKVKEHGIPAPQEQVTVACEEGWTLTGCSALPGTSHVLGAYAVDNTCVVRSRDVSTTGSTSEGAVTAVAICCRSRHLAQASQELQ
Test Protocol: BLI, biotinylated hPCSK9 on sensor tips
Reminder that pKd is minus the log10 of a molar concentration.

QUERY: Report pKd for 2971A03 (designed binder, Anti-PCSK9 Adnectin, His6-tagged) MGVSDVPRDLEVVAATPTSLLISWDPPSDDYGYYRITYGETGGNSPVQEFTVPIGKGTATISGLKPGVDYTITVYAVEFPWPHAGYYHRPISINYRTEIDKPSQHHHHHH please.
RESULT: 9.09

QUERY: Query: pKd; subject: 2381B02 (designed binder, Anti-PCSK9 Adnectin, His6-tagged) MGVSDVPRDLEVVAATPTSLLISWEPFSRLPGGGEYYRITYGETGGNSPLQQFTVPGSKGTATISGLKPGVDYTITVYAVEYPYDYSGYYHRPISINYRTEIDKPSQHHHHHH
RESULT: 8.48

QUERY: Entry under review: 2382H03 (designed binder, Anti-PCSK9 Adnectin, His6-tagged) MGVSDVPRDLEVVAATPTSLLISWDAPAEGAYGYYRITYGETGGNSPVQEFTVPVSKGTATISGLKPGVDYTITVYAVEYPYPFAGYYHRPISINYRTEIDKPSQHHHHHH . Reported pKd?
RESULT: 9.17

QUERY: Given the entry 2382H10 (designed binder, Anti-PCSK9 Adnectin, His6-tagged) MGVSDVPRDLEVVAATPTSLLISWDAPAGGYGYYRITYGETGGNSPVQEFTVPVSKGTATISGLKPGVDYTITVYAVEFDFPGSGYYHRPISINYRTEIDKPSQHHHHHH , report its measured pKd.
RESULT: 8.85
